Data provenance is PubChem BioAssay AID1918993.

- System: 233499-124-R-J3-PDC complex spheroid growth;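 also: spheroids exposed to agents for seven days before reading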
- test.description: Anticancer human tumor 233499-124-R-J3-PDC patient-derived colon adenocarcinoma cell line growth inhibition [AhR]
- run.parameters: curve of first compound; second compound 0.316 µM
pIC50: −log10 of the molar value.
measure.name: pIC50

// below: answered compounds
1) Nc1ccccc1NC(=O)c1ccc(CNC(=O)OCc2cccnc2)cc1 + Cc1ccccc1N=Nc1ccc(NC(=O)c2ccnn2C)c(C)c1 = 5.25
2) CCN(c1cc(-c2ccc(CN3CCOCC3)cc2)cc(C(=O)NCc2c(C)cc(C)[nH]c2=O)c1C)C1CCOCC1 + CC(CO)NC(=O)c1cc(-c2ccc(Cl)cc2)nn(-c2cnn(C)c2)c1=O = < 5.52
3) Nc1ncn(C2CC(O)C(CO)S2)c(=O)n1 (centres undefined) + CC(CO)NC(=O)c1cc(-c2ccc(Cl)cc2)nn(-c2cnn(C)c2)c1=O = < 6.52

Okay, now this compound:
According to the records, this compound Nc1ncn(C2CC(O)C(CO)S2)c(=O)n1 (centres undefined) + Cc1ccccc1N=Nc1ccc(NC(=O)c2ccnn2C)c(C)c1 displays pIC50 of < 6.52
